targetEntity: cyclooxygenase (Mus musculus, UniProt P22437)
Construct: A cell suspension containing peritoneal cells of male mice 8-10 weeks old was obtained; endogenous in cells; host or cells: mouse peritoneal macrophages (male mice 8-10 weeks old), zymosan-stimulated
Sequence (P22437 27-602): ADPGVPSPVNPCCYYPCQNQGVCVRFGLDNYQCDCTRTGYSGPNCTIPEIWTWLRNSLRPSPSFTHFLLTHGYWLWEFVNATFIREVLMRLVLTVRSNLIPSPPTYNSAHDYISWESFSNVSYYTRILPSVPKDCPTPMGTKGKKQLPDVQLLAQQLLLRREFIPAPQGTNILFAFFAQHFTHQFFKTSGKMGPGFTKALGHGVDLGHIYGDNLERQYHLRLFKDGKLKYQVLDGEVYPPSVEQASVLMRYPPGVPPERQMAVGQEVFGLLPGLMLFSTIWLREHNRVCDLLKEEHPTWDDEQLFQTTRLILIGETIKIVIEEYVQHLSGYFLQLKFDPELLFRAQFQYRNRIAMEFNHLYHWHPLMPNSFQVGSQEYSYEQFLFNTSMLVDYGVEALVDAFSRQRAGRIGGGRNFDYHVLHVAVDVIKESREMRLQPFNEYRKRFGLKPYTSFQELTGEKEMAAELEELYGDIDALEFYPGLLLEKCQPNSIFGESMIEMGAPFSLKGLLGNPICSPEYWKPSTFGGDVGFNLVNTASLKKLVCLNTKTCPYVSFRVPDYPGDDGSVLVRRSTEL
assayRemarks: Cyclooxygenase inhibition: release of 6-keto-PGF1 α from zymosan-stimulated mouse peritoneal macrophage cells
Assay type: cell-based
conditionsUsed: 10^-5 mol/l, read-out: In vitro % inhibition effect on the release of 6-keto-PGF1 α
measurementLabel: inhibition at 10 µM (%)
Write down the numeric answer in % and omit the unit.

Cc1ccnc(N2CCN(CCc3c(C)n4c5c(cccc35)CCC4C3CCCCC3)CC2)c1 (centres unmarked)	20
Cc1ccnc(N2CCN(CCc3c(-c4ccc(OCCCCO)cc4)n4c5c(cccc35)CCC4)CC2)c1	53
Cc1ccnc(N2CCN(CCc3c(C)n4c5c(cc(N)cc35)CCC4)CC2)c1	42
Cc1ccnc(N2CCN(CCc3c(-c4ccc(F)cc4)n4c5c(cccc35)CCC4)CC2)c1	69
Cc1ccnc(N2CCN(CCc3c(C)n4c5c(ccc(Cl)c35)OCC4)CC2)c1	51

Query :: Need inhibition at 10 µM of "Cc1ccnc(N2CCN(CCc3c(C)n4c5c(cccc35)CCC4)CC2)c1" , thanks.
Result :: 23

Query :: Thanks! And "Cc1ccnc(N2CCN(CCc3c(C)n4c5c(cc(Cc6ccccc6)cc35)CCC4)CC2)c1" ?
Result :: 42

Query :: # iterate: CCCCC1CCc2cc(OC)cc3c(CCN4CCN(c5cc(C)ccn5)CC4)c(C)n1c23 (centres unmarked)
Result :: 38

---

targetEntity: histamine (H1) receptor (Cavia porcellus, UniProt P31389)
Construct: isolated smooth muscle of the guinea-pig ileum; from tissue; host or cells: isolated ileum segments of Dunkin Hartley guinea-pigs
Sequence (P31389 whole entry): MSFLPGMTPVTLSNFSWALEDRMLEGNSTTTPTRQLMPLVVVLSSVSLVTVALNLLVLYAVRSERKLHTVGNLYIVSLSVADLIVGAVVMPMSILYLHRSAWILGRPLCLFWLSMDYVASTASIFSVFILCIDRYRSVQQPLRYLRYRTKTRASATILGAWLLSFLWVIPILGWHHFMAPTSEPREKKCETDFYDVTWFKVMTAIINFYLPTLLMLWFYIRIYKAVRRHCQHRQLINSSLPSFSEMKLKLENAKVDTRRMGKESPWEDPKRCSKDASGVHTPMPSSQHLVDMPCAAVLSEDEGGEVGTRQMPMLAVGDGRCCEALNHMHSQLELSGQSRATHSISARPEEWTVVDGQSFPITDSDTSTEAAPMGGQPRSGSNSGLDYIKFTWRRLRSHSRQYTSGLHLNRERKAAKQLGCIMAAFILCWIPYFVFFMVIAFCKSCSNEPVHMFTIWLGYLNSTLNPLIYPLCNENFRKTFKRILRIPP
assayRemarks: Antihistamine (H1) effect: inhibition of histamine-induced contractions of isolated guinea-pig ileum in vitro
Type: cell-based, guinea-pig (Dunkin Hartley)
conditionsUsed: histamine 5 × 10^-6 mol/l, test substance 10^-6 mol/l, after 10 min. (after washing); read-out: in vitro (H1) receptor antagonism % inhibitory effect on histamine-induced contractions of the Ileum, after 10 min.
measurementLabel: inhibition at 1 µM (%)
Numeric only. Scale: %

Completed entries (count: 6):
Cc1cccc(N2CCN(CCc3c(C)n4c5c(cccc35)CCC4)CC2)n1	50
CSc1cc2c3c(c1)c(CCN1CCN(c4cc(C)ccn4)CC1)c(C)n3CCS2	92
Cc1ccnc(N2CCN(CCc3c(C)n4c5c(cc(NC(=O)C(C)C)cc35)CCC4)CC2)c1	37
Cc1ccnc(N2CCN(CCc3c(C)n4c5c(cc(C)cc35)CCC4)CC2)c1	94
Cc1ccnc(N2CCN(CCc3c(C)n4c5c(cccc35)[S+]([O-])CC4)CC2)c1 (stereo not drawn) [Example 28a]	24
Cc1ccnc(N2CCN(CCc3c(C)n4c5c(cccc35)CC4C)CC2)c1 (stereo not drawn)	96

Query :: Fill blank: measured inhibition at 1 µM of the molecule Cc1ccnc(N2CCN(CCc3c(C)n4c5c(cccc35)S(=O)(=O)CC4)CC2)c1 [Example 28b] is ____.
Result :: 14

Query :: Now the same for "Cc1ccnc(N2CCN(CCc3c(C)n4c5c(cccc35)CCC4)CC2)c1"
Result :: 88

Query :: Subsequent entry: "CCc1c(CCN2CCN(c3cc(C)ccn3)CC2)c2cccc3c2n1CCC3"
Result :: 78

---

targetEntity: 5-lipoxygenase (Mus musculus)
Construct: A cell suspension containing peritoneal cells of male mice 8-10 weeks old was obtained; endogenous in cells; host or cells: mouse peritoneal macrophages (male mice 8-10 weeks old), zymosan-stimulated
Sequence (P48999 whole entry): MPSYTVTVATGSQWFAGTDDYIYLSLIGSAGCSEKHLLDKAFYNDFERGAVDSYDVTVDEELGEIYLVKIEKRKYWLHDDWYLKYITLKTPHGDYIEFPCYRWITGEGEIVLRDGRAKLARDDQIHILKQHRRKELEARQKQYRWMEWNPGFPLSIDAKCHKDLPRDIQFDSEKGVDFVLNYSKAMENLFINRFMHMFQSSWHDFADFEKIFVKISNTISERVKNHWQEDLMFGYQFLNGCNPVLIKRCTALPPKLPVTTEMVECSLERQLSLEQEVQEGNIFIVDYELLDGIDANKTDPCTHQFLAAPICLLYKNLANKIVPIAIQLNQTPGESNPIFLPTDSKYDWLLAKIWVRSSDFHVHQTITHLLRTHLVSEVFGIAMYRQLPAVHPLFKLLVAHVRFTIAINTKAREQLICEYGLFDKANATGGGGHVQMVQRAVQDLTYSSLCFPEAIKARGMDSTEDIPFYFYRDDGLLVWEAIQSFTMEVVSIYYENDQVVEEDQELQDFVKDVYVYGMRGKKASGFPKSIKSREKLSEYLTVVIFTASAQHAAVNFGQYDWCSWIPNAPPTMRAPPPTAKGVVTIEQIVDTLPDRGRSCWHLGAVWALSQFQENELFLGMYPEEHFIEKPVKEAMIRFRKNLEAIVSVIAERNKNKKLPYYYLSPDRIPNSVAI
assayRemarks: 5-lipoxygenase inhibition: release of LTC4 from zymosan-stimulated mouse peritoneal macrophage cells
Format: cell-based
conditionsUsed: 10^-5 mol/l, read-out: In vitro % inhibition effect on the release of LTC4
Description: 5. In vitro determination of cyclooxygenase inhibition and 5-lipoxygenase inhibition. After activation of the cell, arachidonic acid contained in cell membranes is metabolized in two ways. Leukotrienes, inter alia leukotriene C4, are formed under the action of the enzyme 5-lipoxygenase (5-LO), and prostanoids are formed under the action of the enzyme cyclooxygenase (CO). In in vitro systems, the metabolites are secreted from the cell. […]
measurementLabel: inhibition at 10 µM (%)
Quick reminder: number only, in %, skip the unit.

CC(C)=Cc1cc2c3c(c1)c(CCN1CCN(c4cc(C)ccn4)CC1)c(C)n3CCC2 [Example 26]	89
Cc1ccnc(N2CCN(CCc3c(C)n4c5c(cccc35)CCC4c3ccccc3)CC2)c1 (stereo not drawn) [Example 3]	37
Cc1ccc(N2CCN(CCc3c(C)n4c5c(cccc35)CCC4)CC2)nc1 [Example 42]	15
Cc1c(CCN2CCN(c3ccccn3)CC2)c2cccc3c2n1CCC3 [Example 37]	13
Cc1ccnc(N2CCN(CCc3c(-c4ccc(OCCCCO)cc4)n4c5c(cccc35)CCC4)CC2)c1 [Example 12]	97
Cc1c(CCN2CCN(c3ccc(Br)cn3)CC2)c2cccc3c2n1CCC3 [Example 43]	24
Cc1ccnc(N2CCN(CCc3c(C)n4c5c(c(C(O)C(C)C)ccc35)SCC4)CC2)c1 (stereo not drawn) [Example 89]	51
Cc1ccnc(N2CCN(CCc3c(CO)n4c5c(cccc35)CCC4)CC2)c1 [Example 16]	17

Query :: Look up inhibition at 10 µM for this molecule: CCCCC1CCc2cc(C(=O)C(C)C)cc3c(CCN4CCN(c5cc(C)ccn5)CC4)c(C)n1c23 (stereo not drawn) [Example 23]
Result :: 94

---

targetEntity: 5-lipoxygenase (Mus musculus)
Construct: A cell suspension containing peritoneal cells of male mice 8-10 weeks old was obtained; endogenous in cells; host or cells: mouse peritoneal macrophages (male mice 8-10 weeks old), zymosan-stimulated
assayRemarks: 5-lipoxygenase inhibition: release of LTC4 from zymosan-stimulated mouse peritoneal macrophage cells
Type: cell-based
conditionsUsed: 10^-5 mol/l, read-out: In vitro % inhibition effect on the release of LTC4
Where inhibition at 10 µM equals or exceeds 40%, the correct label is Y; where it does not, the label is N.

Cc1ccnc(N2CCN(CCc3c(C)n4c5c(cc(CC(C)C)cc35)CCC4)CC2)c1	Y
Cc1ccnc(N2CCN(CCc3c(C)n4c5c(cc(Cc6ccccc6)cc35)CCC4)CC2)c1	Y
Cc1ccnc(N2CCN(CCc3c(C)n4c5c(cc(C(=O)c6ccc(Cl)cc6)cc35)CCC4)CC2)c1	N

Query :: Answer whether inhibition at 10 µM of "Cc1ccnc(N2CCN(CCc3c(C)n4c5c(ccc(C(=O)C(C)C)c35)SCC4)CC2)c1" is greater than or equal to 40%.
Result :: Y

Query :: Same question, "Cc1ccnc(N2CCN(CCc3c(C)n4c5c(cccc35)CCC4)CC2)c1" this time
Result :: N

Query :: Would you mind doing CCc1c(C(O)CN2CCN(c3cc(C)ccn3)CC2)c2cccc3c2n1CCC3 (stereo not shown) as well?
Result :: Y

Query :: Another molecule to check: CCCCCCCC1CCc2cccc3c(CCN4CCN(c5cc(C)ccn5)CC4)c(C)n1c23 (stereo not shown)
Result :: Y

Query :: Same read-out for CCCCC1CCc2cc(OC)cc3c(CCN4CCN(c5cc(C)ccn5)CC4)c(C)n1c23 (stereo not shown) ?
Result :: Y

Query :: What about Cc1ccnc(N2CCN(CCc3c(C)n4c5c(cccc35)CCC4C3CCCCC3)CC2)c1 (stereo not shown) ?
Result :: N

Query :: Same again, this time with "Cc1ccnc(N2CCN(CCc3c(C)n4c5c(cc(C(=O)C(C)C)cc35)CCC4)CC2)c1"
Result :: Y

Query :: Okay, and Cc1ccnc(N2CCN(CCc3c(C)n4c5c(cccc35)CCC4c3ccc(O)cc3)CC2)c1 (stereo not shown) ?
Result :: Y

Query :: Param item: "Cc1ccnc(N2CCN(CCc3c(C)n4c5c(cc(C(=O)c6ccccc6)cc35)CCC4)CC2)c1"
Result :: N
